The origin of these recorded values is patent US4281654A.

# Assay Comment: Solubility in distilled water
# Type: physicochemical
# Assay Conditions: water
Readout Type: solubility (mg/mL)
Give your result in mg/mL as a bare value.

// field: solubility; key: "CC[C@@H]1C(=O)OC[C@@H]1Cc1cncn1C" ; value = 270
